procedure-text: Flowability test (angle of repose)
Type: physicochemical
condition-details: measurement 1
Procedure: The amorphous form of compound of formula I prepared in Preparation Example, the crystal form A of the compound of formula I prepared in Example 1, the crystal form B of the compound of formula I prepared in Example 7, and the crystal form C of the compound of formula I prepared in Example 11 were measured for angle of repose, and the specific results are shown in the following table: […]
measured-parameter: angle of repose (°)
Your answer is read as °, so omit the unit and give the number.

Answered examples (3):
compound="C[C@@H]1Cc2c([nH]c3ccccc23)[C@@H](c2c(F)cc(/C=C/C(=O)O)cc2F)N1CC1(F)CC1 [crystal form A]" measured_parameter="angle of repose" unit_string=° assay_result=30.6
compound="C[C@@H]1Cc2c([nH]c3ccccc23)[C@@H](c2c(F)cc(/C=C/C(=O)O)cc2F)N1CC1(F)CC1 [crystal form B]" measured_parameter="angle of repose" unit_string=° assay_result=32.5
compound="C[C@@H]1Cc2c([nH]c3ccccc23)[C@@H](c2c(F)cc(/C=C/C(=O)O)cc2F)N1CC1(F)CC1 [crystal form C]" measured_parameter="angle of repose" unit_string=° assay_result=31.5

The record that follows has no angle of repose shown yet.
Input line: Provide measured angle of repose value, entry: C[C@@H]1Cc2c([nH]c3ccccc23)[C@@H](c2c(F)cc(/C=C/C(=O)O)cc2F)N1CC1(F)CC1 [amorphous form]
Output line: 43.2
